What follows is a collection of pIC50 values obtained with VDR with NCoR (Homo sapiens).
Sequence (P11473 whole entry): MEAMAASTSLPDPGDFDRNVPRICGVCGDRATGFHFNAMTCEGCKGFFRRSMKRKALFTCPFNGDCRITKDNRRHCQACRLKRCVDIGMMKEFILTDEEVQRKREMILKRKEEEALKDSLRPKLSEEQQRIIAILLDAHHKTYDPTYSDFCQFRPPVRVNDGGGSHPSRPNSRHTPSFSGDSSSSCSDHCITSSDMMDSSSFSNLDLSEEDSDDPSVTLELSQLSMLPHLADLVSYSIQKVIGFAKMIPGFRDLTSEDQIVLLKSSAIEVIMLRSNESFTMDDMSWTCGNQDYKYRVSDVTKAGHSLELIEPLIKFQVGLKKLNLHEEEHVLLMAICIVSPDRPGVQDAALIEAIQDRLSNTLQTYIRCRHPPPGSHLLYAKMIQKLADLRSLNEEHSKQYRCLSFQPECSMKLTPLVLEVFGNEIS
Interpret pIC50 as the negative base-10 log of the concentration measured in mol/L.

query: Enter measured pIC50, system VDR with NCoR (Homo sapiens), for the compound shown: `C=C1[C@H](O)CC(=C/C=C2\CCC[C@]3(C)[C@@H]([C@H](C)CC#C[C@](O)(CCCC)C45CC6CC(CC(C6)C4)C5)CC[C@@H]23)C[C@H]1O`
result: 9.40

Shifting focus to the compound that follows.
query: Enter measured pIC50, system VDR with NCoR (Homo sapiens), for the compound shown: `C=C1[C@H](O)CC(=C/C=C2\CCC[C@]3(C)[C@@H]([C@H](C)CC#C[C@](C)(O)C45CC6CC(CC(C6)C4)C5)CC[C@@H]23)C[C@H]1O`
result: 8.64
